B1: SETD8 (parent)
chain: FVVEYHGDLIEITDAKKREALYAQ

- Variants of: B1
- EXPERIMENT_NOTES: protein stability index of a GFP-peptide fusion (GPS, HEK-293T) (PSI 1-6); higher = more stable;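 further: lentivirally expressed fusions sorted by FACS into six bins by GFP to DsRed ratio, PSI derived from sequencing read proportions per bin multiplied by bin number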
- MEASUREMENT_SETUP: c terminus: a fixed tail appended
Everything with protein stability index lower than 2 is label 0; everything else, including exactly 2, is label 1.

POLYMER_SEQUENCE	GROUP
FVVEYHGDLITITDAKKREALYAQ [E11T]	label 1
FVVEYHGELIEITDAKKREALYAQ [D8E]	label 1
FEVEYHGDLIEITDAKKREALYAQ [V2E]	label 1
FVVDYHGDLIEITDAKKREALYAQ [E4D]	label 1
FVVEYHGDIIEITDAKKREALYAQ [L9I]	label 0
FVVEYHGDLIEITDAKKREALVAQ [Y22V]	label 1
FVVEYHCDLIEITDAKKREALYAQ [G7C]	label 0
FVVEYHGDLIEITDAKKREALYTQ [A23T]	label 1
FVVEYHGDLIEITDAKKREALYWQ [A23W]	label 1
FVVEYHGDPIEITDAKKREALYAQ [L9P]	label 1
FVVEYHGDLIEITDAKKREAWYAQ [L21W]	label 1
FVVEYHGDLIEITDAKKREALYAN [Q24N]	label 0
FVVEYHGDFIEITDAKKREALYAQ [L9F]	label 1
FVVEYHGDLIEITDAKKREALYAW [Q24W]	label 0
FVVCYHGDLIEITDAKKREALYAQ [E4C]	label 0
FVVEYHFDLIEITDAKKREALYAQ [G7F]	label 1
FVVEYHGDLIEITDAKKREATYAQ [L21T]	label 0
FVVFYHGDLIEITDAKKREALYAQ [E4F]	label 0
FVVEYHGDLIEITDAKRREALYAQ [K17R]	label 0
FVVMYHGDLIEITDAKKREALYAQ [E4M]	label 0
FVVEYHGVLIEITDAKKREALYAQ [D8V]	label 1
FVVNYHGDLIEITDAKKREALYAQ [E4N]	label 0
FVVEYHGDLIEQTDAKKREALYAQ [I12Q]	label 1
FVVEYHGDLIEITKAKKREALYAQ [D14K]	label 1
FVVEYHGDQIEITDAKKREALYAQ [L9Q]	label 1
FVVEYHGDLIEITDAKKREALIAQ [Y22I]	label 0
FVVEYAGDLIEITDAKKREALYAQ [H6A]	label 0
FVVEYHGDLIEITDAKKREAFYAQ [L21F]	label 0
FVVEYQGDLIEITDAKKREALYAQ [H6Q]	label 1
FVHEYHGDLIEITDAKKREALYAQ [V3H]	label 1
